molecular target: TLR2 (Homo sapiens, UniProt O60603); experiment: TLR2 antagonist screening assay, HEK Blue hTLR2 cells, competition with diprovocim
Sequence (O60603 21-784): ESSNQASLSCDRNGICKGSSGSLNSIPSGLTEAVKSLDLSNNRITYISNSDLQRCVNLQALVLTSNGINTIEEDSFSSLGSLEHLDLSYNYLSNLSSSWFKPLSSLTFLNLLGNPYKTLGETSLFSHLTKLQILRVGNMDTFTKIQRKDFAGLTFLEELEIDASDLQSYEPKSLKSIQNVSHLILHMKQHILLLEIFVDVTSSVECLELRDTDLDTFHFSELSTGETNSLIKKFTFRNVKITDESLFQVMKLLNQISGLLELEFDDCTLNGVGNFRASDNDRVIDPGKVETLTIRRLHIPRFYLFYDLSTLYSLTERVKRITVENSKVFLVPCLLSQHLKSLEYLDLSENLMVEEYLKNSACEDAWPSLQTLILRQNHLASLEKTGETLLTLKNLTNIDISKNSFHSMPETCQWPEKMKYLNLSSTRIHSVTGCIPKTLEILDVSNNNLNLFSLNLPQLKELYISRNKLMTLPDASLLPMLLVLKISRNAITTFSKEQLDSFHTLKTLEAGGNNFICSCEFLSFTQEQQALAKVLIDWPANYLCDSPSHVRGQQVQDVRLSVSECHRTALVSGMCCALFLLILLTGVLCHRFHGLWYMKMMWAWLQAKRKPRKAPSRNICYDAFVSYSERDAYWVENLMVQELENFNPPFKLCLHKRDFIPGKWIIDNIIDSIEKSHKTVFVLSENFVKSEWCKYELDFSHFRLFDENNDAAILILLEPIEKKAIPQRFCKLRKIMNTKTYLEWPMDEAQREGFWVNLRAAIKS
pIC50: −log10 of the molar value.
Listed here are compounds together with their documented pIC50.

# annotated cases, reported pIC50 shown
compound="CCCCCCCC(=O)N1CCN(S(=O)(=O)c2ccc(C(=O)N3C[C@@H](C(=O)N[C@H]4C[C@@H]4c4ccccc4)[C@H](C(=O)N[C@H]4C[C@@H]4c4ccccc4)C3)cc2)CC1C(=O)NCCCCCC (some centres unmarked)" assay_endpoint=pIC50 readout_value="6.00 to 6.45"
compound=CCCCCCCC(=O)N1CCN(S(=O)(=O)c2ccc(C(=O)N3C[C@@H](C(=O)N[C@H]4C[C@@H]4c4ccccc4)[C@H](C(=O)N[C@H]4C[C@@H]4c4ccccc4)C3)cc2)C[C@H]1C(=O)NCCCCCC assay_endpoint=pIC50 readout_value="6.00 to 6.45"
compound="CCCCCCCCCCCCCCNC(=O)C1CN(C(=O)c2ccc(C(=O)N3C[C@@H](C(=O)N[C@H]4C[C@@H]4c4ccccc4)[C@H](C(=O)N[C@H]4C[C@@H]4c4ccccc4)C3)cc2)CCN1C(C)=O (some centres unmarked)" assay_endpoint=pIC50 readout_value="6.00 to 6.45"

Returns the measured pIC50 for the input compound. Input: O=C(N[C@H]1C[C@@H]1c1ccccc1)[C@@H]1CN(C(=O)c2ccc(C(=O)N3CC[C@@H](n4cnc(-c5ccc(C(F)(F)F)cc5)c4)C3)cc2)C[C@H]1C(=O)N[C@H]1C[C@@H]1c1ccccc1
6.46 to 9.00

Returns the measured pIC50 for the input compound. Input: CCCCCCCCCCCCCCNC(=O)[C@@H]1CN(C(=O)c2ccc(C(=O)N3C[C@@H](C(=O)N[C@H]4C[C@@H]4c4ccccc4)[C@H](C(=O)N[C@H]4C[C@@H]4c4ccccc4)C3)cc2)CCN1C(C)=O
6.46 to 9.00

Returns the measured pIC50 for the input compound. Input: CCCCCCCCCCCCCCNC(=O)C1CN(C(=O)c2ccc(C(=O)N3C[C@@H](C(=O)N[C@H]4C[C@@H]4c4ccccc4)[C@H](C(=O)N[C@H]4C[C@@H]4c4ccccc4)C3)cc2)C1
6.00 to 6.45

Returns the measured pIC50 for the input compound. Input: CCCCCCCC(=O)N1CCCN(S(=O)(=O)c2ccc(C(=O)N3C[C@@H](C(=O)N[C@H]4C[C@@H]4c4ccccc4)[C@H](C(=O)N[C@H]4C[C@@H]4c4ccccc4)C3)cc2)CC1C(=O)NCCCCCC (single isomer, unassigned)
6.00 to 6.45

Returns the measured pIC50 for the input compound. Input: O=C(N[C@H]1C[C@@H]1c1ccccc1)[C@@H]1CN(C(=O)C23CCC(C(=O)N4C[C@@H](C(=O)N[C@H]5C[C@@H]5c5ccccc5)[C@H](C(=O)N[C@H]5C[C@@H]5c5ccccc5)C4)(CC2)CC3)C[C@H]1C(=O)N[C@H]1C[C@@H]1c1ccccc1
6.00 to 6.45

Returns the measured pIC50 for the input compound. Input: CCCCCCN1C(=O)[C@H](CNC(=O)c2ccc(C(=O)N3C[C@@H](C(=O)N[C@H]4C[C@@H]4c4ccccc4)[C@H](C(=O)N[C@H]4C[C@@H]4c4ccccc4)C3)cc2)NC(=O)[C@@H]1CCCCC
6.46 to 9.00

Returns the measured pIC50 for the input compound. Input: CCCCCCCCCCCCCCC(=O)NC1CCN(C(=O)c2ccc(C(=O)N3C[C@@H](C(=O)N[C@H]4C[C@@H]4c4ccccc4)[C@H](C(=O)N[C@H]4C[C@@H]4c4ccccc4)C3)cc2)CC1
6.00 to 6.45

Returns the measured pIC50 for the input compound. Input: CCCCCCCCCCCCCCN1CC(=O)N[C@@H](CNC(=O)c2ccc(C(=O)N3C[C@@H](C(=O)N[C@H]4C[C@@H]4c4ccccc4)[C@H](C(=O)N[C@H]4C[C@@H]4c4ccccc4)C3)cc2)C1=O
6.46 to 9.00

###

target: TLR2 (Homo sapiens, UniProt O60603); assay: TLR2 agonist screening assay, HEK-Blue TLR2 reporter cell line (NF-kB-driven SEAP, absorbance at 600 nm); type: cell-based; parameters: host or cells: HEK-293 (HEK-Blue TLR2 reporter cell line); settings: HEK-Blue TLR2 reporter cells, agonist mode; average of all runs (Table 4)
pEC50: −log10 of the molar value.
Assay Endpoint: pEC50

molecule=CCCCCCCCCC(=O)N[C@@H](Cc1nnc(-c2ccc(C(=O)N3C[C@@H](C(=O)N[C@H]4C[C@@H]4c4ccccc4)[C@H](C(=O)N[C@H]4C[C@@H]4c4ccccc4)C3)cc2)s1)C(=O)NCCCCCC target_of_assay="TLR2 (Homo sapiens, UniProt O60603)" assay_endpoint=pEC50 readout_value="7.30 to 10.00"

Note: attention shifts to another entry.
Returns the measured pEC50 for the input molecule. Input: CCCCCCCC[C@@H]1CN(C(=O)c2ccc(C(=O)N3C[C@@H](C(=O)N[C@H]4C[C@@H]4c4ccccc4)[C@H](C(=O)N[C@H]4C[C@@H]4c4ccccc4)C3)cc2)C[C@H]1C(=O)NCCCCCC (single isomer, unassigned) [Compound 111]
7.30 to 10.00

###

target: TLR2 (Mus musculus, UniProt Q9QUN7); construct: endogenous in cells; assay: TLR2 functional assay, cytokine release from RAW 264.7 mouse macrophage cell line; conditions: average of all runs
Sequence (Q9QUN7 25-784): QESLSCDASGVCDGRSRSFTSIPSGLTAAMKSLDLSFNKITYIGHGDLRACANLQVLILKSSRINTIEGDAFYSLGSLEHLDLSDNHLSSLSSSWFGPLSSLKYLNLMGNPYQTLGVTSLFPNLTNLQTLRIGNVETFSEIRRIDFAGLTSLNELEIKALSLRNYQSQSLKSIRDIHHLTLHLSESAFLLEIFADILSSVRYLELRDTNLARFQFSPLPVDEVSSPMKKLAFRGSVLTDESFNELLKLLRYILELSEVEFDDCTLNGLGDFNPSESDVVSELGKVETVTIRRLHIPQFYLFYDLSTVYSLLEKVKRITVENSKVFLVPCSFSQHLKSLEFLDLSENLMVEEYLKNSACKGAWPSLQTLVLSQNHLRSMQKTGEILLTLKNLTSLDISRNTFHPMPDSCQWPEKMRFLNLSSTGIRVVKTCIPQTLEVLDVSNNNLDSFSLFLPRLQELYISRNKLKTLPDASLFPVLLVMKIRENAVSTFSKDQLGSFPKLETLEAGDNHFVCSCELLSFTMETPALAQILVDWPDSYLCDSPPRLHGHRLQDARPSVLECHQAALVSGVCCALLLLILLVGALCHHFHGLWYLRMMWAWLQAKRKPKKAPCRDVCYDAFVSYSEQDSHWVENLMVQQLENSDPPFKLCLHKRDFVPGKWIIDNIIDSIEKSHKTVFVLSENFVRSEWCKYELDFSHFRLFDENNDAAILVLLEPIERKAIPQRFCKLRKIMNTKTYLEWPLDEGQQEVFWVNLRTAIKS
pEC50: −log10 of the molar value.
Listed here are compounds together with their documented pEC50.

smiles=CCCCCCNC(=O)[C@H](CNC(=O)c1ccc(C(=O)N2C[C@@H](C(=O)N[C@H]3C[C@@H]3c3ccccc3)[C@H](C(=O)N[C@H]3C[C@@H]3c3ccccc3)C2)cc1)NC(=O)N[C@H]1C[C@@H]1c1ccccc1 target_of_assay="TLR2 (Mus musculus, UniProt Q9QUN7)" readout_value="6.46 to 7.29"

Note: attention shifts to another entry.
Returns the measured pEC50 for the input compound. Input: CCCCCCCCCCCCCCC(=O)N[C@H]1CN(C(=O)c2ccc(C(=O)N3C[C@@H](C(=O)N[C@H]4C[C@@H]4c4ccccc4)[C@H](C(=O)N[C@H]4C[C@@H]4c4ccccc4)C3)cc2)C[C@@H]1OC
< 6.00

###

biological target: TLR2 (Homo sapiens, UniProt O60603); assay: TLR2 agonist screening assay, HEK-Blue TLR2 reporter cell line (NF-kB-driven SEAP, absorbance at 600 nm); assay type: cell-based; set-up: host or cells: HEK-293 (HEK-Blue TLR2 reporter cell line); details: HEK-Blue TLR2 reporter cells, agonist mode; average of all runs (Table 4)
Assay Endpoint: EC50

# annotated cases, reported EC50 shown
compound=CCCCCCCCCCCCCCC(=O)N1CCC[C@@H](NC(=O)c2ccc(C(=O)N3C[C@@H](C(=O)N[C@H]4C[C@@H]4c4ccccc4)[C@H](C(=O)N[C@H]4C[C@@H]4c4ccccc4)C3)cc2)C1 readout_value="> 1000 nM"
compound="O=C(N[C@H]1C[C@@H]1c1ccccc1)[C@@H]1CN(C(=O)c2ccc(C(=O)N3C[C@@H](C(=O)N[C@H]4C[C@@H]4c4ccccc4)[C@H](C(=O)N[C@@H]4C[C@H]4c4cccnc4)C3)cc2)C[C@H]1C(=O)N[C@H]1C[C@@H]1c1ccccc1 (single isomer, unassigned)" readout_value="51 to 350 nM"

Note: attention shifts to another entry.
Returns the measured EC50 for the input compound. Input: CCCCCCCCCCCCCCC(=O)N1CCC[C@H](NC(=O)c2ccc(C(=O)N3C[C@@H](C(=O)N[C@H]4C[C@@H]4c4ccccc4)[C@H](C(=O)N[C@H]4C[C@@H]4c4ccccc4)C3)cc2)C1
> 1000 nM

###

molecular target: TLR2 (Homo sapiens, UniProt O60603); test: TLR2 agonist screening assay, HEK-Blue TLR2 reporter cell line (NF-kB-driven SEAP, absorbance at 600 nm); assay type: cell-based; set-up: host or cells: HEK-293 (HEK-Blue TLR2 reporter cell line); details: HEK-Blue TLR2 reporter cells, agonist mode; average of all runs (Table 3)
Assay Endpoint: EC50

# annotated cases, reported EC50 shown
molecule="CCCCCCCC(=O)N1CCN(S(=O)(=O)c2ccc(C(=O)N3C[C@@H](C(=O)N[C@H]4C[C@@H]4c4ccccc4)[C@H](C(=O)N[C@H]4C[C@@H]4c4ccccc4)C3)cc2)CC1C(=O)NCCCCCC (stereo partly shown) [Compound 053]" assay_endpoint=EC50 readout_value="> 1000 nM"
molecule="CCCCCCCCCCCCCCNC(=O)C1CN(C(=O)c2ccc(C(=O)N3C[C@@H](C(=O)N[C@H]4C[C@@H]4c4ccccc4)[C@H](C(=O)N[C@H]4C[C@@H]4c4ccccc4)C3)cc2)CCO1 (stereo partly shown) [Compound 006]" assay_endpoint=EC50 readout_value="351 to 1000 nM"
molecule="O=C(N[C@H]1C[C@@H]1c1ccccc1)[C@@H]1CN(C(=O)c2cnc(C(=O)N3C[C@@H](C(=O)N[C@H]4C[C@@H]4c4ccccc4)[C@H](C(=O)N[C@H]4C[C@@H]4c4ccccc4)C3)cn2)C[C@H]1C(=O)N[C@H]1C[C@@H]1c1ccccc1 [Compound 067]" assay_endpoint=EC50 readout_value="> 1000 nM"

Note: attention shifts to another entry.
Returns the measured EC50 for the input molecule. Input: CCCCCCCC(=O)N1CC(=O)N(Cc2ccc(C(=O)N3C[C@@H](C(=O)N[C@H]4C[C@@H]4c4ccccc4)[C@H](C(=O)N[C@H]4C[C@@H]4c4ccccc4)C3)cc2)C[C@@H]1C(=O)NCCCCCC [Compound 074]
51 to 350 nM
